Origin of measurements: patent US20110178024A1

- Target or test system: HLA-DR15 (DRB1*1501) (human)
- Assay comment: cell-based or functional assay
Parameter measured: T-cell line 1 proliferation, SI at 5 µg peptide/ml (SI)
Report as a plain number; the unit SI is understood.

The reported value for EDVGSNKGAIIGLMV [Aβ22-36 peptide] in terms of T-cell line 1 proliferation, SI at 5 µg peptide/ml is 10.2

The reported value for GSNKGAIIGLMVGGV [Aβ25-39 peptide] in terms of T-cell line 1 proliferation, SI at 5 µg peptide/ml is 17.3

The reported value for QKLVFFAEDVGSNKGAIIGLMVGGVVIA [Aβ15-42 peptide] in terms of T-cell line 1 proliferation, SI at 5 µg peptide/ml is 15.8

The reported value for KGAIIGLMVGGVVIA [Aβ28-42 peptide] in terms of T-cell line 1 proliferation, SI at 5 µg peptide/ml is 12.6
